Value source: patent US20240287161A1

molecular target: SARS-CoV2 S protein on VSV pseudovirus (SARS-CoV-2, UniProt P0DTC2 14-1273); test: cell-based or functional assay
Measured Property: IC50, pseudovirus neutralization [NT-193]

Some solved cases for reference:
NT-193, human IgG4 subclass (antibody, V domains shown) VH: EVQLQQWGAGLLKPSETLSLTCAVYGGSFSGYYWSWIRQPPGKGLEWIGEINHSGSTNYNPSLKSRVTISVDTSKNQFSLKLSSVTAADTAVYYCARGWDLDYYYGMDVWGQGTTVTVSS VL: DIRMTQSPSAMSASVGDRVTVTCRASQGIGNYLAWFQLKPGKVPKRLIYAASSLQSGVPARFSGGGSGTEFTLTISSLQPEDFATYYCLQHGFLPWTFGQGTKLEIK :: 4.4 ng/mL
NT-193 (recombinant human IgG1/kappa antibody) (antibody, V domains shown) VH: EVQLQQWGAGLLKPSETLSLTCAVYGGSFSGYYWSWIRQPPGKGLEWIGEINHSGSTNYNPSLKSRVTISVDTSKNQFSLKLSSVTAADTAVYYCARGWDLDYYYGMDVWGQGTTVTVSS VL: DIRMTQSPSAMSASVGDRVTVTCRASQGIGNYLAWFQLKPGKVPKRLIYAASSLQSGVPARFSGGGSGTEFTLTISSLQPEDFATYYCLQHGFLPWTFGQGTKLEIK :: 11.1 ng/mL

// each binder listed below needs its IC50, pseudovirus neutralization [NT-193]
1. NT-193, human IgG3 subclass (antibody, V domains shown) VH: EVQLQQWGAGLLKPSETLSLTCAVYGGSFSGYYWSWIRQPPGKGLEWIGEINHSGSTNYNPSLKSRVTISVDTSKNQFSLKLSSVTAADTAVYYCARGWDLDYYYGMDVWGQGTTVTVSS VL: DIRMTQSPSAMSASVGDRVTVTCRASQGIGNYLAWFQLKPGKVPKRLIYAASSLQSGVPARFSGGGSGTEFTLTISSLQPEDFATYYCLQHGFLPWTFGQGTKLEIK
2. NT-193, human IgG2 subclass (antibody, V domains shown) VH: EVQLQQWGAGLLKPSETLSLTCAVYGGSFSGYYWSWIRQPPGKGLEWIGEINHSGSTNYNPSLKSRVTISVDTSKNQFSLKLSSVTAADTAVYYCARGWDLDYYYGMDVWGQGTTVTVSS VL: DIRMTQSPSAMSASVGDRVTVTCRASQGIGNYLAWFQLKPGKVPKRLIYAASSLQSGVPARFSGGGSGTEFTLTISSLQPEDFATYYCLQHGFLPWTFGQGTKLEIK

[reply]
1. 1 ng/mL
2. 6.5 ng/mL
